For reference, Ki measured on hMC2 receptor (Homo sapiens, UniProt Q01718):

Here are 6 compounds together with their reported answers.
compound	metricName	reportedValue
CCOc1ncccc1-c1ccc2c(c1)N(CCNC)C(=O)NC21CCN(c2ccc(C(F)(F)F)cc2C#N)CC1 [1-65]	Ki	< 10 nM
CCOc1ncccc1-c1ccc2c(n1)N(CCCN)CC21CCN(c2ccc(C(F)(F)F)cc2C#N)CC1 [1-54]	Ki	< 10 nM
CCOc1ncccc1-c1ccc2c(c1)N(C(=O)CCN)CC21CCN(c2cc(OC)cc(C(F)(F)F)n2)CC1 [1-36]	Ki	1000 to 10000 nM
CCOc1ncccc1-c1ccc2c(c1)N(CCN)C(=O)NC21CCN(c2ccc(C(F)(F)F)cc2C#N)CC1 [1-64]	Ki	< 10 nM
CCOc1ncccc1-c1ccc2c(c1)N(C(=O)CN)CC21CCN(c2ccc(C(F)(F)F)cc2C#N)CC1 [1-1]	Ki	10 to 100 nM
CCOc1ncccc1-c1ccc2c(n1)N([C@H]1CCNC1)CC21CCN(c2ccc(C(F)(F)F)cc2C#N)CC1 [1-53]	Ki	10 to 100 nM

Briefly, Ki measured for CCOc1ncccc1-c1ccc2c(c1)N(C(=O)CCN)CC21CCN(c2cc(C(F)(F)F)cc(C#N)n2)CC1 [1-24] : 1000 to 10000 nM

Briefly, Ki measured for C[C@@H](N)CN1CC2(CCN(c3ccc(C(F)(F)F)cc3C#N)CC2)c2ccc(-c3ccccc3CO)cc21 [1-42] : 10 to 100 nM

Briefly, Ki measured for CCOc1ncccc1-c1ccc2c(n1)N(C(=O)[C@H](C)N)CC21CCN(c2ccc(C(F)(F)F)cc2C#N)CC1 [1-48] : < 10 nM

Briefly, Ki measured for CCOc1ncccc1-c1ccc2c(n1)N(C(=O)[C@@H]1CCNC1)CC21CCN(c2ccc(C(F)(F)F)cc2C#N)CC1 [1-49] : < 10 nM

Briefly, Ki measured for CCOc1ncccc1-c1ccc2c(n1)N(CCNC)C(=O)C21CCN(c2ccc(C(F)(F)F)cc2C#N)CC1 [1-63] : < 10 nM

====

For reference, Ki measured on hMC2 receptor (Homo sapiens):

CCOc1ncccc1-c1ccc2c(n1)N(CCN)C(=O)C21CCN(c2ccc(C(F)(F)F)cc2C#N)CC1 < 10 nM

The reported hMC2 receptor (Homo sapiens) Ki of CCOc1ncccc1-c1ccc2c(c1)N(CCN)C(=O)C21CCN(c2ccc(C(F)(F)F)cc2C#N)CC1 is < 10 nM

The reported hMC2 receptor (Homo sapiens) Ki of CCOc1ncccc1-c1ccc2c(c1)N(C[C@H](C)N)C(=O)CC21CCN(c2ccc(C(F)(F)F)cc2C#N)CC1 is 10 to 100 nM
